Provenance of the data: ChEMBL document CHEMBL3507680

TEST PROTOCOL: Human HepG2 cell viability assay in 384 well format
Assay type: toxicity, cell-based
Parameters: dose 125 nL, time 70.5 hour; concentration not given beside the values
CONDITION: HepG2 cells, read-out: Inhibition
Listed next: entries and their corresponding cytotoxicity at 70.5 h.
METRIC NAME: cytotoxicity at 70.5 h (%)

- Cc1nc(C)c(Cc2nc(C3CC3)n[nH]2)c(=O)[nH]1: -3.16
- CC(CN1CCOCC1)NC(=O)c1cc(Cl)c2c(c1)OCCO2 (centres undefined): 0.172
- C[C@H](c1ccc(F)cc1)n1c(C2CCN(C)CC2)n[nH]c1=O: 19.4
- CCOCCS(=O)(=O)Cc1ccn(-c2cccc(F)c2)n1: -10.1
- O=C1CCCN1Cc1nnc2n1CCN(Cc1ccoc1)CC2: 30
- CCc1cc(NC2CCS(=O)(=O)CC2)nc(N2CCCCC2)n1: 22.5
- CN(Cc1ccc(F)cc1)CC1(O)CCN(C(=O)c2ccccc2)C1 (centres undefined): -2.54
- Cc1cc(CN(C)C(=O)C(c2ccccc2F)N(C)C)ccn1 (centres undefined): -7.87
- CCc1ccc2ncn(Cc3ncc[nH]3)c(=O)c2c1: -18.6
- Cc1n[nH]c(C2CN(C(=O)c3coc(Br)c3)CCO2)n1 (centres undefined): -10.2
- O=S(=O)(c1ccc(Cl)s1)N1CCN(Cc2nc(-c3ccco3)cs2)CC1: -13.8
- O=C(CC1CCCCC1)NC1CCCCNC1=O (centres undefined): -9.32
- CN(C)CCn1ccnc1C1CCN(C(=O)CCC(F)(F)F)CC1: -7.92
- CN(C)Cc1cc(=O)n2c(n1)CN(C(=O)Cc1cccs1)CCC2: 1.23
- CNC(=O)[C@@]12CCO[C@@H]1CCN(S(=O)(=O)c1cc(C)cc(C)c1)C2: -13.2
- COCCN1CCO[C@@H]2CN(Cc3ccccc3OC)C[C@@H]2C1: -0.773
- Cc1ccc(C(C(=O)NC(C)(C)CN2CCCC2)N(C)C)cc1 (centres undefined): 45
- CN1CCC(NC(=O)Nc2ccc(Cl)c(F)c2)C1=O (centres undefined): 2.58
- O=C(CCNC(=O)c1ccc(Cl)cc1)NCc1nc(C2CC2)no1: 19.3
